Hello, the source for this data is patent US20210078988A1, in case you need it.

test.system: indoleamine 2, 3-dioxygenase (IDO1) (Homo sapiens, UniProt P14902)
Construct: human peripheral blood mononuclear cells (PBMC) (PB003F; host or cells: human PBMC stimulated with IFN-gamma and LPS
Sequence (P14902 whole entry): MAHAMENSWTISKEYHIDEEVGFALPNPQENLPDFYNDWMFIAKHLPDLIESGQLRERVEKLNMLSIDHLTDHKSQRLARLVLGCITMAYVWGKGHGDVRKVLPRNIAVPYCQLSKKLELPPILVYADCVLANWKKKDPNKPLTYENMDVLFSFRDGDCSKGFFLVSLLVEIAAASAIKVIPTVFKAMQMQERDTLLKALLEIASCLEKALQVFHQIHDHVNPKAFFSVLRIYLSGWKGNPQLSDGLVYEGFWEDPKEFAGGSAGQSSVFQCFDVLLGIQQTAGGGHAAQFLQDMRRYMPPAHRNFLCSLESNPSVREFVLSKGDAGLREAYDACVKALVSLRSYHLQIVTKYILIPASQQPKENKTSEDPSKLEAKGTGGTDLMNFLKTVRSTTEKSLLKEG
assay.summary: PBMC IDO1 assay (kynurenine detection via mass spectrometry)
Format: cell-based
condition.notes: human PBMC stimulated with IFN-γ and LPS, 2 days, kynurenine by mass spectrometry; read-out: IDO1 PBMC pIC50 (converted)
Procedure: Compounds of the present invention were tested via high-throughput cellular assays utilizing detection of kynurenine via mass spectrometry and cytotoxicity as end-points. […] Cellular toxicity due to the effect of compound treatment was measured using CellTiter-Glo® reagent (CTG) (Promega Corporation, Madison, Wis.), which is based on luminescent detection of ATP, an indicator of metabolically active cells. […]
recorded.metric: IC50 (nM)

compound: CCOC(=O)N1CCC(CC(NC(=O)c2ccc(Cl)s2)C2CC2)CC1 (stereo not drawn) [Example 7]
test.system: indoleamine 2, 3-dioxygenase (IDO1) (Homo sapiens, UniProt P14902)
readout.units: nM
numeric.readout: 6.31
--
compound: CC(C)(C)OC(=O)N1CCC(CC(NC(=O)c2ccc(I)c(F)c2)c2ccccc2)CC1 (stereo not drawn) [Example 101]
test.system: indoleamine 2, 3-dioxygenase (IDO1) (Homo sapiens, UniProt P14902)
readout.units: nM
numeric.readout: 25.1
--
compound: CC(C)c1nnc(C(CC2CCN(C(=O)OC(C)(C)C)CC2)NC(=O)c2ccc(F)cc2)o1 (stereo not drawn) [Example 223]
test.system: indoleamine 2, 3-dioxygenase (IDO1) (Homo sapiens, UniProt P14902)
readout.units: nM
numeric.readout: 501
--
compound: Cc1ccc(C(CC2CCN(C(=O)OC(C)(C)C)CC2)NC(=O)c2ccc(F)cc2)cn1 (stereo not drawn) [Example 174]
test.system: indoleamine 2, 3-dioxygenase (IDO1) (Homo sapiens, UniProt P14902)
readout.units: nM
numeric.readout: 126
--
compound: CC(C)(C)OC(=O)N1CCC(CC(NC(=O)c2ccc[nH]2)c2ccccc2)CC1 (stereo not drawn) [Example 220]
test.system: indoleamine 2, 3-dioxygenase (IDO1) (Homo sapiens, UniProt P14902)
readout.units: nM
numeric.readout: 501
--
compound: CCOC(=O)N1CCC(CC(NC(=O)c2ccc(F)cc2)C2CC2)CC1 (stereo not drawn) [Example 108]
test.system: indoleamine 2, 3-dioxygenase (IDO1) (Homo sapiens, UniProt P14902)
readout.units: nM
numeric.readout: 31.6
--
compound: CC(C)OC(=O)N1CCC(CC(NC(=O)c2ccc(Cl)cc2)c2ccccc2)CC1 (stereo not drawn) [Example 103]
test.system: indoleamine 2, 3-dioxygenase (IDO1) (Homo sapiens, UniProt P14902)
readout.units: nM
numeric.readout: 25.1
--
compound: Cc1ccc(C(=O)NC(CC2CCN(C(=O)OC(C)(C)C)CC2)C(C)C)s1 (stereo not drawn) [Example 46]
test.system: indoleamine 2, 3-dioxygenase (IDO1) (Homo sapiens, UniProt P14902)
readout.units: nM
numeric.readout: 3.98
--
compound: COc1ccc([C@H](CC2CCN(C(=O)NC(C)(C)C)CC2)NC(=O)c2ccc(Cl)s2)cn1 [Example 40]
test.system: indoleamine 2, 3-dioxygenase (IDO1) (Homo sapiens, UniProt P14902)
readout.units: nM
numeric.readout: 3.98
--
compound: CC(C)(C)COC(=O)N1CCC(CC(NC(=O)c2ccc(Cl)cc2)c2ccccc2)CC1 (stereo not drawn) [Example 187]
test.system: indoleamine 2, 3-dioxygenase (IDO1) (Homo sapiens, UniProt P14902)
readout.units: nM
numeric.readout: 158
--
compound: CCOC(=O)N1CCC(C[C@H](NC(=O)c2ccc(CC)s2)c2ccccc2)CC1 [Example 66]
test.system: indoleamine 2, 3-dioxygenase (IDO1) (Homo sapiens, UniProt P14902)
readout.units: nM
numeric.readout: 12.6
--
compound: C=Cc1ccc(C(=O)NC(CC2CCN(C(=O)OC(C)(C)C)CC2)c2ccccc2)s1 (stereo not drawn) [Example 180]
test.system: indoleamine 2, 3-dioxygenase (IDO1) (Homo sapiens, UniProt P14902)
readout.units: nM
numeric.readout: 126
--
compound: CC(C)(C)OC(=O)N1CCC(CC(CNCc2ccccc2)NC(=O)c2ccc(F)cc2)CC1 (stereo not drawn) [Example 142]
test.system: indoleamine 2, 3-dioxygenase (IDO1) (Homo sapiens, UniProt P14902)
readout.units: nM
numeric.readout: 63.1
--
compound: O=C(NC(CC1CCN(C(=O)Oc2ccccc2)CC1)c1ccccc1)c1ccc(F)cc1 (stereo not drawn) [Example 121]
test.system: indoleamine 2, 3-dioxygenase (IDO1) (Homo sapiens, UniProt P14902)
readout.units: nM
numeric.readout: 39.8
--
compound: CCC(F)(F)C(=O)N1CCC(CC(NC(=O)c2ccc(C)s2)c2ccccc2)CC1 (stereo not drawn) [Example 95]
test.system: indoleamine 2, 3-dioxygenase (IDO1) (Homo sapiens, UniProt P14902)
readout.units: nM
numeric.readout: 20
--
compound: CCOC(=O)N1CCC(C[C@H](NC(=O)c2ccc(Cl)s2)C2CC2)CC1 [Example 12]
test.system: indoleamine 2, 3-dioxygenase (IDO1) (Homo sapiens, UniProt P14902)
readout.units: nM
numeric.readout: 3.16
--
compound: CC(C)(C)OC(=O)N1CCC(C[C@H](NC(=O)c2ccc(Cl)s2)C2CC2)CC1 [Example 8]
test.system: indoleamine 2, 3-dioxygenase (IDO1) (Homo sapiens, UniProt P14902)
readout.units: nM
numeric.readout: 6.31
--
compound: Cc1ccc(C(=O)NC(CC2CCN(C(=O)OC(C)(C)C)CC2)c2ccccc2)cc1F (stereo not drawn) [Example 139]
test.system: indoleamine 2, 3-dioxygenase (IDO1) (Homo sapiens, UniProt P14902)
readout.units: nM
numeric.readout: 63.1
--
compound: CCNc1nnc(C(CC2CCN(C(=O)OC(C)(C)C)CC2)NC(=O)c2ccc(Cl)s2)o1 (stereo not drawn) [Example 127]
test.system: indoleamine 2, 3-dioxygenase (IDO1) (Homo sapiens, UniProt P14902)
readout.units: nM
numeric.readout: 39.8
--
compound: CCc1ccc(C(=O)NC(CC2CCN(C(=O)OC(C)(C)C)CC2)c2ccccc2)s1 (stereo not drawn) [Example 1]
test.system: indoleamine 2, 3-dioxygenase (IDO1) (Homo sapiens, UniProt P14902)
readout.units: nM
numeric.readout: 7.94
--
compound: CC(C)(C)OC(=O)N1CCC(CC(NC(=O)c2cccc3cc[nH]c23)c2ccccc2)CC1 (stereo not drawn) [Example 181]
test.system: indoleamine 2, 3-dioxygenase (IDO1) (Homo sapiens, UniProt P14902)
readout.units: nM
numeric.readout: 158
--
compound: CC(C)(C)OC(=O)N1CCC(C[C@H](NC(=O)c2ccc(Cl)cc2)C2CC2)CC1 [Example 90]
test.system: indoleamine 2, 3-dioxygenase (IDO1) (Homo sapiens, UniProt P14902)
readout.units: nM
numeric.readout: 20
--
compound: CC(C)(C)CC(=O)N1CCC(CC(NC(=O)c2ccc(Cl)cc2)c2ccccc2)CC1 (stereo not drawn) [Example 164]
test.system: indoleamine 2, 3-dioxygenase (IDO1) (Homo sapiens, UniProt P14902)
readout.units: nM
numeric.readout: 100
--
compound: COc1ccc([C@H](CC2CCN(C(=O)OC(C)(C)C)CC2)NC(=O)c2ccc(Br)cc2)cn1 [Example 23]
test.system: indoleamine 2, 3-dioxygenase (IDO1) (Homo sapiens, UniProt P14902)
readout.units: nM
numeric.readout: 3.98
--
compound: CCOC(=O)N1CCC(CC(NC(=O)c2ccc(Cl)s2)c2nnc(N(CC)CC)o2)CC1 (stereo not drawn) [Example 45]
test.system: indoleamine 2, 3-dioxygenase (IDO1) (Homo sapiens, UniProt P14902)
readout.units: nM
numeric.readout: 3.16
--
compound: CC(C)Cc1ccc(C(=O)NC(CC2CCN(C(=O)OC(C)(C)C)CC2)c2ccccc2)s1 (stereo not drawn) [Example 227]
test.system: indoleamine 2, 3-dioxygenase (IDO1) (Homo sapiens, UniProt P14902)
readout.units: nM
numeric.readout: 631
--
compound: COC(=O)N1CCC(CC(NC(=O)c2ccc(F)cc2)c2ccc(OC)nc2)CC1 (stereo not drawn) [Example 145]
test.system: indoleamine 2, 3-dioxygenase (IDO1) (Homo sapiens, UniProt P14902)
readout.units: nM
numeric.readout: 79.4
--
compound: Cc1ccc(C(=O)NC(CC2CCN(C(=O)OC(C)(C)C)CC2)c2ccccc2)o1 (stereo not drawn) [Example 204]
test.system: indoleamine 2, 3-dioxygenase (IDO1) (Homo sapiens, UniProt P14902)
readout.units: nM
numeric.readout: 316
--
compound: CC(C)(C)OC(=O)N1CCC(CC(NC(=O)c2ccc(Cl)s2)C2CCCC2)CC1 (stereo not drawn) [Example 115]
test.system: indoleamine 2, 3-dioxygenase (IDO1) (Homo sapiens, UniProt P14902)
readout.units: nM
numeric.readout: 31.6
--
compound: COC(=O)N1CCC(CC(NC(=O)c2ccc(Cl)cc2)c2ccccc2)CC1 (stereo not drawn) [Example 134]
test.system: indoleamine 2, 3-dioxygenase (IDO1) (Homo sapiens, UniProt P14902)
readout.units: nM
numeric.readout: 50.1
--
compound: O=C(NC(CC1CCN(C(=O)OC2CCCC2)CC1)c1ccccc1)c1ccc(Cl)cc1 (stereo not drawn) [Example 100]
test.system: indoleamine 2, 3-dioxygenase (IDO1) (Homo sapiens, UniProt P14902)
readout.units: nM
numeric.readout: 25.1
--
compound: COc1ccc([C@H](CC2CCN(C(=O)OC(C)(C)C)CC2)NC(=O)c2ccc(F)s2)cn1 [Example 25]
test.system: indoleamine 2, 3-dioxygenase (IDO1) (Homo sapiens, UniProt P14902)
readout.units: nM
numeric.readout: 3.16
--
compound: Cc1ccc(C(=O)N[C@@H](CC2CCN(C(=O)OC(C)(C)C)CC2)C2CC2)s1 [Example 9]
test.system: indoleamine 2, 3-dioxygenase (IDO1) (Homo sapiens, UniProt P14902)
readout.units: nM
numeric.readout: 5.01
